Method Summary: THP1-Dual cytotoxicity (Cell Titer Glo, ATP)
Assay type: cell-based, human
Assay Conditions: human, THP1-Dual cells, Human Reporter Cell Line; read-out: Thp1 cytotox CC50
Measured Endpoint: CC50

Let me know recorded CC50 for Cc1cc(NC(=O)c2ccc(OCc3ccccc3)cc2)ccc1N1CCN(C(=O)c2cccs2)CC1 [NA-74] , thanks. > 10 µM

Supply recorded CC50 for O=C(Nc1ccc(N2CCN(C(=O)c3cccs3)CC2)cc1)c1ccc(-c2ccncc2)cc1 [NA-38] here. > 25 µM

---

Test system: NF-κB-SEAP reporter in THP1-Dual cells
Method Summary: THP1-Dual NF-κB-SEAP reporter counterscreen
Format: cell-based, human
Assay Conditions: Homo sapiens, THP1-Dual, Human Reporter Cell Line, 8-point dose response; read-out: THP1 NFkB EC50
pEC50: −log10 of the molar value.
Measured Endpoint: pEC50

The examples below pair each entry with its known result.
CC(Oc1ccc(C(=O)Nc2ccc(N3CCN(C(=O)c4cccs4)CC3)cc2)cc1)c1ccccc1 (stereo not drawn) [NA-22]
~5.58
O=C(Nc1ccc(N2CCN(C(=O)c3cccs3)CC2)cc1)c1ccc(OCc2ccc(F)c(F)c2F)cc1 [NA-23]
~5.64

Determine reported pEC50 for O=C(Nc1ccc(N2CCN(C(=O)c3cccs3)CC2)cc1)c1ccc(OCc2ccccc2)nc1 [NA-59] ; test system: NF-κB-SEAP reporter in THP1-Dual cells. ~5.59
